Where these numbers come from: ChEMBL document CHEMBL3612047

- Tested on: HOP-62
- test description: Growth inhibition of human HOP62 cells by NCI standard protocol based method
- Format: functional
assay metric: GI50 (nM)
State the answer as a number, implicitly in nM.

Would you please look over these solved cases?
[[record]]
entry_smiles = "COc1cc(NC(=O)COc2ccccc2)c(C(N)=O)cc1OC"
units_of_measure = "nM"
value = 1750

[[record]]
entry_smiles = "COc1ccc(NC(=O)COc2ccccc2)c(C(N)=O)c1"
units_of_measure = "nM"
value = 1010

[[record]]
entry_smiles = "NC(=O)c1cc(Cl)ccc1NC(=O)COc1ccccc1"
units_of_measure = "nM"
value = 5880


Observed GI50, HOP-62, `NC(=O)c1cc(I)ccc1NC(=O)COc1ccccc1` : 824
